- System: cytoplasmic domain of syndecan-4 (SDC4cyt)
- Assay Name: ELISA-based assay, wells coated with MLP peptides, overlaid with biotin-SDC4cyt
- Assay type: binding, human
- Condition Set: 10 µg 30-mer peptide coated; SDC4cyt normalized to SDC4scram, related to MLP-WT (100%); n = 16; Mann-Whitney U
Measure Name: biotinylated SDC4cyt binding to mutated MLP peptide compared with MLP-WT peptide

[
  {
    "Biopolymer Sequence": "AAHERGIYCKVCYGRRYGPKGIGYGQGAGC [MLP-S54R,E55G, 30-mer human MLP peptide with S54R,E55G mutation]",
    "Measured On": "cytoplasmic domain of syndecan-4 (SDC4cyt)",
    "Result": "significantly weaker"
  },
  {
    "Biopolymer Sequence": "CNGRSFHKTCFHCMACRKALDRTTVAAHES [MLP-S46R, 30-mer human MLP peptide with S46R mutation]",
    "Measured On": "cytoplasmic domain of syndecan-4 (SDC4cyt)",
    "Result": "significantly weaker"
  },
  {
    "Biopolymer Sequence": "CNGRSFHKTCFHCMACRKAPDSTTVAAHES [MLP-L44P, 30-mer human MLP peptide with L44P mutation]",
    "Measured On": "cytoplasmic domain of syndecan-4 (SDC4cyt)",
    "Result": "significantly weaker"
  }
]
